Test system: UACC-257 melanoma
Test: NCI tumour cell line growth inhibition, 48 h
Property: TGI

Below, each entry is followed by its recorded TGI result.
| Molecule | TGI |
| --- | --- |
| CCC[CH2][Sn]1([CH2]CCC)[O]Cc2nc(C)ccc2[O]1 | 20.2 µM |
| CCc1ccc(/C=C\c2cc(OC)c(OC)c(OC)c2)cc1 | 72.1 µM |
| Cn1c(=O)c2[nH]c(SCc3ccccn3)nc2n(C)c1=S | > 100 µM |

Exercise: Find the recorded TGI belonging to O=C1O[C@@H](c2ccc3c(c2)OCO3)C2C(=O)O[C@@H](c3ccc4c(c3)OCO4)C12 (stereo partly specified) and report it.
Key: > 100 µM

Exercise: Find the recorded TGI belonging to CSC(C1c2ccccc2N(c2ccc(C)cc2)C2=NC(=O)N(C)C(=O)C21Cl)S(=O)(=O)c1ccc(C)cc1 (stereo unspecified) and report it.
Key: 57.2 µM

Exercise: Find the recorded TGI belonging to `CCC(=O)Oc1c2ccsc2c(OC(=O)CC)c2ccsc12` and report it.
Key: 0.333 µM

Exercise: Find the recorded TGI belonging to `Brc1cccc(C=NC23CC4CC(CC(C4)C2)C3)c1` and report it.
Key: > 100 µM

Exercise: Find the recorded TGI belonging to `COc1ccc(/C=C/c2nccc3ccccc23)cc1OC` and report it.
Key: > 10 µM
